biological target: Sirt2 (Homo sapiens); experiment: sirtuin inhibition IC50, Sirt2; format: biochemical; conditions: Table 1; NI = no inhibition at 256 μM
Sequence (Q8IXJ6 whole entry): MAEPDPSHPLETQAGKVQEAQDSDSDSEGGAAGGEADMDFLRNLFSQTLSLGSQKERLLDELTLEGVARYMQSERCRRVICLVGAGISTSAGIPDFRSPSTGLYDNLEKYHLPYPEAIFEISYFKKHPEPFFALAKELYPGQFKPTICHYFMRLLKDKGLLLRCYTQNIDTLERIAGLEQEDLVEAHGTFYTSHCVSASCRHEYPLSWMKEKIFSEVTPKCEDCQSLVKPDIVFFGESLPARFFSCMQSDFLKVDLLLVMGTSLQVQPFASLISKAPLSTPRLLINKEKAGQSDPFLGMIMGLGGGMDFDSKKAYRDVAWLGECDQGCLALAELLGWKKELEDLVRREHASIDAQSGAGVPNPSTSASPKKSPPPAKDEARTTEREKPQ
MEASUREMENT_NAME: IC50

CCCCCCCNC(=S)NCCCCC(NC(=O)OCc1ccccc1)C(=O)Nc1ccccc1 (stereo not drawn) ... 0.2 µM
O=C(O)CCCC(=S)NCCCC[C@H](NC(=O)OCc1ccccc1)C(=O)Nc1ccccc1 ... > 256 µM

IC50 reading for O=C(O)CCC(=S)NCCCCC(NC(=O)OCc1ccccc1)C(=O)Nc1ccccc1 (stereo not drawn) [Compound 3a, reference compound] : > 256 µM

====

Listed here are compounds together with their documented IC50.
Target: Sirt5 (Homo sapiens)
Sequence (Q9NXA8 37-310): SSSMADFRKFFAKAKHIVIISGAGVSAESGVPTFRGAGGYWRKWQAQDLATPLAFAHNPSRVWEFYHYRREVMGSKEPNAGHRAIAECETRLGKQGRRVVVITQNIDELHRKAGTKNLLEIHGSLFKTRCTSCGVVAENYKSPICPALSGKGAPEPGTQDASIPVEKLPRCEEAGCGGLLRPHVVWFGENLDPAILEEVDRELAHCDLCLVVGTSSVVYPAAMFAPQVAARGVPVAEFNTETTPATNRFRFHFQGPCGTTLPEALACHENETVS
Assay: sirtuin inhibition IC50, Sirt5-catalyzed desuccinylation
Type: biochemical
Settings: Table 2; NI = no inhibition
Note: unit µM is implicit; provide only the numeric part.

NS(=O)(=O)c1cc(C(=O)NC(CCCCNC(=S)NCCC(=O)O)C(=O)Nc2cccc(O)c2)ccc1Cl (stereo not shown) ... 3.05

The record that follows has no IC50 shown yet.
Summary: O=C(O)CCNC(=S)NCCCCC(NC(=O)OCc1ccccc1)C(=O)NC1CCSc2ccccc21 (stereo not shown) , Sirt5 (Homo sapiens), IC50 = 0.45
